Provide the reported Population Pyknosed Nuclei (%) of each item.
- Tested on: Fibroblast
- protocol description: Multiplex assay against human fibroblast
- Format: toxicity, cell-based
- condition details: 12 h, 10 µM, compound concentration 10 uM, replicate 2
// return numeric value only (unit: %, not printed)

// recorded Population Pyknosed Nuclei (%) for `Cl.Cl.Nc1ncnc2c1c(-c1cccc(OCc3ccccc3)c1)cn2[C@H]1C[C@@H](CN2CCC2)C1` : 29

Population Pyknosed Nuclei (%) recorded for this compound, `Cl.Cl.NC1(c2ccc(-c3nc4ccn5c(=O)[nH]nc5c4cc3-c3ccccc3)cc2)CCC1` , is 14

The compound listed as `Cc1cn(-c2cc(NC(=O)c3ccc4c(c3)CN(c3cncnc3)C[C@@H]4C)cc(C(F)(F)F)c2)cn1` has a reported Population Pyknosed Nuclei (%) of 14

Reported Population Pyknosed Nuclei (%) for CCCn1c(=O)c2[nH]c(C34CC5CC(CC3C5)C4)nc2n(CCC)c1=O [ROLOFYLLINE] was 12
